System: Staphylococcus aureus
Assay: Antibacterial activity against Staphylococcus aureus K2378 overexpressing NorA after 18 hrs by two fold serial dilution method
Assay type: functional
Conditions: K2378, 18 h
For each record, write down the corresponding MIC.
One number for each entry, in µM.

- SAMPLE_SMILES: "COc1ccc2c(Cc3ccccc3-c3cc4cc([N+](=O)[O-])ccc4[nH]3)c3[n+](cc2c1OC)CCc1cc2c(cc1-3)OCO2"
  MIC (µM): 18.8
- SAMPLE_SMILES: "COc1ccc2c(Cc3cccc(-c4cc5cc([N+](=O)[O-])ccc5[nH]4)c3)c3[n+](cc2c1OC)CCc1cc2c(cc1-3)OCO2"
  MIC (µM): 20.1

Now for another entry.
In: Give MIC (Staphylococcus aureus) of the following molecule: COc1ccc2c(Cc3ccc(-c4cc5cc([N+](=O)[O-])ccc5[nH]4)cc3)c3[n+](cc2c1OC)CCc1cc2c(cc1-3)OCO2
Out: 40.2
